Origin of values: the RepoRT retention time repository (doi:10.1016/j.chroma.2019.01.023)

Assay: HILIC, Merck SeQuant ZIC-pHILIC, 150 × 2.1 mm, 5 µm, 40 °C, 0.3 mL/min, estimated dead time 1.1 min; A: acetonitrile; B: water + 2.8 mM ammonium formate, pH 9; gradient (min/%B) 0/5 1/5 10/51 13/51 13.1/5 20/5
Conditions: stereoisomer not certain
measured_attribute: LC retention time (min)

compound	LC retention time / min
CC(CCC(=O)O)C1CCC2C3C(O)CC4CC(O)CCC4(C)C3CC(O)C12C (stereo not drawn) [CHOLATE]	2.33
NC(CCC(=O)NC(CS)C(=O)NCC(=O)O)C(=O)O (stereo not drawn) [GLUTATHIONE REDUCED]	8.59
OCC1OC(OCC2OC(OC3(CO)OC(CO)C(O)C3O)C(O)C(O)C2O)C(O)C(O)C1O (stereo not drawn) [RAFFINOSE]	9.56
CCCCCCCCCC(=O)OCC(COP(=O)([O-])OCC[N+](C)(C)C)OC(=O)CCCCCCCCC (stereo not drawn) [DIDECANOYL-GLYCEROPHOSPHOCHOLINE]	1.65
Nc1nc2c(ncn2C2OC(COP(=O)(O)O)C(O)C2O)c(=O)[nH]1 (stereo not drawn) [GUANOSINE MONOPHOSPHATE]	9.41
Nc1nc2c(ncn2C2OC3COP(=O)(O)OC3C2O)c(=O)[nH]1 (stereo not drawn) [CYCLIC GMP]	8.22

[a] C[Se]CCC(N)C(=O)O (stereo not drawn) [SELENOMETHIONINE]
[b] Cc1cn(C2CC(O)C(CO)O2)c(=O)[nH]c1=O (stereo not drawn) [THYMIDINE]
Which item exceeds the other in LC retention time, a or b ? Kindly give the label for the entry you pick.
a
(a: 6.81 min, b: 3.56 min)

====

Assay: HILIC, Waters ACQUITY UPLC BEH Amide, 150 × 2.1 mm, 1.7 µm, 40 °C, 0.5 mL/min, estimated dead time 0.66 min; A: 5% water + 95% acetonitrile; B: 70% water + 30% acetonitrile + 10 mM ammonium formate, pH 6.5; gradient (min/%B) 0/0 2/0 20/70 23/70 24/0 31/0
Settings: stereoisomer not certain
measured_attribute: LC retention time (min)

compound	LC retention time (min)
CCCCC(N)C(=O)O (stereo unspecified)	7.75
OCC1OC(OC2OC(CO)C(O)C(O)C2O)C(O)C(O)C1O (stereo unspecified)	11.3
NC(CCCC(=O)O)C(=O)O (stereo unspecified) [AMINOADIPATE]	6.89
NCC(O)c1ccccc1 (stereo unspecified)	7.74
CC(=O)NC(CC(=O)O)C(=O)O (stereo unspecified) [N-ACETYLASPARTATE]	3.48
Nc1ccc(C(=O)[O-])cc1 [4-AMINOBENZOATE]	1.11

[a] COc1cc(C=CC(=O)O)ccc1O [FERULATE]
[b] NCCCCN=C(N)N.O=S(=O)(O)O [AGMATINE SULFATE]
Which record shows the lower LC retention time: the first, a , or the second, b ? Kindly give the label for the entry you pick.
a
(a: 1.24 min, b: 14 min)

[A] O=C(O)C(O)Cc1ccc(O)cc1 (stereo unspecified) [HYDROXYPHENYLLACTATE]
[B] O=C(O)C=Cc1cnc[nH]1 [UROCANATE]
Which item exceeds the other in LC retention time, A or B ? Kindly give the label for the entry you pick.
B
